# target: T1, Processed stabilized hMPV PreF trimer (115BV) (human metapneumovirus, strain B2)
# T1 construct: also called Processed hMPV PreF trimer; processed PreF
# method: BLI, ratio to unprocessed PreF trimer
Measured processed/unprocessed PreF trimer binding ratio values are reported for all entries that follow.
In your answer, state the number alone without any accompanying words.

The following binders have reported results that may help.
{"binder": "M2C07 (antibody, V domains shown, IgG) VH: QVQLQESGPGLVAPSQTLSLICDVSGDSVTSGAYSWSWIRQHPVKGLEWIAYINYSGRTNYNPSLQSRLVISVDRSKNQFSLRLSSVTAADTAVYYCARANVVGYSGFYFDYWGQGTLVAVSS VL: DIQMTQSPSSLSASVGDTVTITCRASQSVGAYLNWYQQKPGKAPKLLVFAGSSLQTGVPSRFSGRGSRTEFTLTITNLQREDFASYYCQQSLGDFLTFGGGTKVEIK", "experimentalValue": 1.05}
{"binder": "M2C08 (antibody, V domains shown, IgG) VH: QVQLVQSGAEVKKPGASVIVSCRASGFTFSLYTMHWVRQAPGQGLEWMGWISADNSNTKYSQKYQDRVTITMDTSATTLFMEISSLRSEDTAVYYCTRGPAYYFDSSGFAFDIWGQGTLVTVSS VL: EIVLTQSPGTLSLSPGERATLSCRASQSVSRTYLGWYQQRPGLAPRLLIYGTSSRATGIPDRFSGSGSGTDFTLTISRLEPEDFATYYCQHFGSSLTFGGGTKVEIK", "experimentalValue": 0.38}

In the following, a different binder is considered.
# query: processed/unprocessed PreF trimer binding ratio of entry M2B10 (antibody, V domains shown, IgG) VH: QVQLVESGGGVVQPGRSLRLSCAASGFTFSNYPMHWVRQAPGKGLAWVALISYDGRTKYYADSVKGRFTISRDNSMNTVYLQMNSLRAEDTAVYYCAREGLEYLNYWGQGTLVTVSS VL: EIVLTQSPGTLSLSPGERATLSCRASQSISSNSLAWYQQKPGQAPRLLSYGTSNRATGIPDRFSGSGSGTDFTLTISRLEPEDFAVYYCQQYGSSPLTFGPGTKVDIK
0.13
